Attribution: PubChem BioAssay AID743283

Test system: HEK293 Gal4-VP16 luciferase reporter counterscreen
Experiment: Gal4-VP16 luciferase reporter inhibitors, late-stage follow-up, counter-screen for COUP-TFII inhibitor project, cell-based, luminescence, HEK293, powder samples, round 000 (AID 743283)
Activity calls are given as the source filed them.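 The calls were made as follows: active = IC50 at or below 10 µM; inactive = IC50 above 10 µM.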
observationType: IC50

# lookup: IC50 of `Cc1nn(C)c(C)c1CN(C)S(=O)(=O)c1ccc2ccccc2c1`
> 85.4 µM (inactive)

Note, next up: O=S(=O)(NCC1CCCO1)c1ccc(-c2ccc(S(=O)(=O)NCC3CCCO3)cc2)cc1 (centres undefined)
> 85.4 µM (inactive)

Note, next up: Cc1oc(-c2ccc(Cl)cc2)nc1CS(=O)CC(=O)NCCCN1CCN(Cc2ccccc2)CC1 (centres undefined)
> 28.5 µM (inactive)
